Assay: Apparent intrinsic clearance in cryopreserved human hepatocytes measured per million cells at 1 uM incubated for 4 hrs by LC-MS/MS analysis
Type: ADME, cell-based, Hepatocyte
Conditions: cryopreserved human hepatocytes, read-out: CLH

| MOLECULE | hepatocyte CLint at 1 µM |
| --- | --- |
| CCOc1cccnc1Oc1cncc(-c2ncc(C(=O)N[C@H]3CCOC3)cn2)c1 [PF-06865571] | < 4 µL/min/1e6 cells |
| CCOc1cccnc1Oc1cncc(-c2ncc(C(=O)NC3(CO)CCOC3)cn2)c1 (stereo in doubt; 4) | < 3 µL/min/1e6 cells |
| CCOc1cccnc1Oc1cncc(-c2ncc(C(=O)NC3CC(=O)N(C)C3)cn2)c1 (racemic) | < 3 µL/min/1e6 cells |

Origin of values: ChEMBL document CHEMBL5096227
